# Tested on: Pseudomonas aeruginosa
# method_summary: MIC values of active ingredients (in nutrient liquid)
# Type: cell-based
# measurement_context: Table I
Reported MIC values are given for each entry in this list.

Exercise: So what's the measured MIC for this one? CC[C@H]1OC(=O)[C@H](C)[C@@H](O[C@H]2C[C@@](C)(OC)[C@@H](O)[C@H](C)O2)[C@H](C)[C@@H](O[C@@H]2O[C@H](C)C[C@H](N(C)C)[C@H]2O)[C@](C)(O)C[C@@H](C)CN(C)[C@H](C)[C@@H](O)[C@]1(C)O
Solution: 65 µg/mL

Exercise: So what's the measured MIC for this one? CC[C@H]1OC(=O)[C@H](C)[C@@H](O[C@H]2C[C@@](C)(OC)[C@@H](O)[C@H](C)O2)[C@H](C)[C@@H](O[C@@H]2O[C@H](C)C[C@H](N(C)C)[C@H]2O)[C@](C)(O)C[C@@H](C)C(=O)[C@H](C)[C@@H](O)[C@]1(C)O
Solution: 90 µg/mL

Exercise: So what's the measured MIC for this one? Clc1ccc(COC(Cn2ccnc2)c2ccc(Cl)cc2Cl)c(Cl)c1 (stereo not shown)
Solution: > 500 µg/mL

Exercise: So what's the measured MIC for this one? CC[C@H]1OC(=O)[C@H](C)[C@@H](O[C@H]2C[C@@](C)(OC)[C@@H](O)[C@H](C)O2)[C@H](C)[C@@H](O[C@@H]2O[C@H](C)C[C@H](N(C)C)[C@H]2O)[C@](C)(OC)C[C@@H](C)C(=O)[C@H](C)[C@@H](O)[C@]1(C)O
Solution: 80 µg/mL

---

# Test system: Serratia marcescens
# method_summary: MIC values of active ingredients (in nutrient liquid)
# Assay type: cell-based
# measurement_context: Table I
# Description: The experiments are carried out in an ambience free of germs. […] The following compounds were tested: azithromycin, clarithromycin, erythromycin, miconazole, […]-sulphate. Test organisms: Bacteria: Escherichia coli, Pseudomonas aeruginosa, Serratia marcescens, Staphylococcus aureus, Streprococcus pyogenes. Fungi: Aspergillus flavus, Fusarium oxysporum, Candida albicans, Candida parapsilosus. […] Following preparation of the inoculum and incubation the MIC values were determined according to the above.
Reported MIC values are given for each entry in this list.

Examples with their reported MIC follow.
molecule="Clc1ccc(COC(Cn2ccnc2)c2ccc(Cl)cc2Cl)c(Cl)c1 (stereo not shown) [miconazole]" experimental_target="Serratia marcescens" measured_attribute=MIC observed_measurement="> 500 µg/mL"
molecule="CC[C@H]1OC(=O)[C@H](C)[C@@H](O[C@H]2C[C@@](C)(OC)[C@@H](O)[C@H](C)O2)[C@H](C)[C@@H](O[C@@H]2O[C@H](C)C[C@H](N(C)C)[C@H]2O)[C@](C)(O)C[C@@H](C)CN(C)[C@H](C)[C@@H](O)[C@]1(C)O [azithromycin]" experimental_target="Serratia marcescens" measured_attribute=MIC observed_measurement="8 µg/mL"
molecule="CC[C@H]1OC(=O)[C@H](C)[C@@H](O[C@H]2C[C@@](C)(OC)[C@@H](O)[C@H](C)O2)[C@H](C)[C@@H](O[C@@H]2O[C@H](C)C[C@H](N(C)C)[C@H]2O)[C@](C)(O)C[C@@H](C)C(=O)[C@H](C)[C@@H](O)[C@]1(C)O [erythromycin]" experimental_target="Serratia marcescens" measured_attribute=MIC observed_measurement="300 µg/mL"

Read the next record carefully.
Exercise: So what's the measured MIC for this one? CC[C@H]1OC(=O)[C@H](C)[C@@H](O[C@H]2C[C@@](C)(OC)[C@@H](O)[C@H](C)O2)[C@H](C)[C@@H](O[C@@H]2O[C@H](C)C[C@H](N(C)C)[C@H]2O)[C@](C)(OC)C[C@@H](C)C(=O)[C@H](C)[C@@H](O)[C@]1(C)O [clarithromycin]
Solution: 100 µg/mL

Hello, the source for this data is patent US7811599B2, in case you need it.
